Cited source for all entries: patent US8058437B2

# assayDetails: Pharmacokinetic experiments in rats (IV, oral suspension, oral solution)
# Assay type: in vivo
# conditionParameters: male, rat, plasma, iv, 5 mg/kg, IV 5 mg/kg, 2 h, Mean of 3
# Procedure: The oral suspension formulation was prepared by suspending the test article in 5% PEG-200/95% of a 0.5% solution of methylcellulose. The concentration of the test article was such that a dosing volume of 10 mL/kg delivered the intended dose level. […] The whole blood samples were centrifuged (˜1500×g) for a minimum of 10 minutes in a refrigerated centrifuge (set at ˜5° C.). […] The plasma samples were analyzed by LC-MS/MS to determine the plasma concentrations of NVX-144 and NVX-412. […]

>  <compound>
O=C(NNc1nc2cc(F)ccc2n2cccc12)c1cnccn1.O=C(O)C(=O)O [NVX-412]

>  <concentration at 2 h>
165 ng/mL

$$$$
